From: the supplement of paper PMC10307832

// values below are reported relative viability
Test system: NCI-H1651
Assay: relative viability (nuclei count vs DMSO), 5 days (fraction); higher = more cells survive
Conditions: first compound 0.3162 µM
measured_metric: relative viability

INSERT INTO results (compound, reported) VALUES
  ('O=c1cc(N2CCOCC2)oc2c(-c3cccc4c3sc3ccccc34)cccc12 + Cc1nc(NC(=O)N2CCC[C@H]2C(N)=O)sc1-c1ccnc(C(C)(C)C(F)(F)F)c1 [Alpelisib] (partner 2 µM)', 0.968),
  ('O=c1cc(N2CCOCC2)oc2c(-c3cccc4c3sc3ccccc34)cccc12 + CS(=O)(=O)N1CCN(Cc2cc3nc(-c4cccc5[nH]ncc45)nc(N4CCOCC4)c3s2)CC1 [Pictilisib] (partner 1 µM)', 0.615),
  ('O=c1cc(N2CCOCC2)oc2c(-c3cccc4c3sc3ccccc34)cccc12 + Nc1nc2[nH]cc(CCc3ccc(C(=O)N[C@@H](CCC(=O)O)C(=O)O)cc3)c2c(=O)[nH]1 [Pemetrexed] (partner 0.2 µM)', 0.552),
  ('O=c1cc(N2CCOCC2)oc2c(-c3cccc4c3sc3ccccc34)cccc12 + C[C@@H](Oc1cc(-c2cnn(C3CCNCC3)c2)cnc1N)c1c(Cl)ccc(F)c1Cl [Crizotinib] (partner 1 µM)', 0.853),
  ('CCN(CC)CCCCNc1ncc2cc(-c3cc(OC)cc(OC)c3)c(NC(=O)NC(C)(C)C)nc2n1 + Nc1nc2[nH]cc(CCc3ccc(C(=O)N[C@@H](CCC(=O)O)C(=O)O)cc3)c2c(=O)[nH]1 [Pemetrexed] (partner 0.2 µM)', 0.787),
  ('O=c1cc(N2CCOCC2)oc2c(-c3cccc4c3sc3ccccc34)cccc12 + CC(=O)Nc1cccc(-n2c(=O)n(C3CC3)c(=O)c3c(Nc4ccc(I)cc4F)n(C)c(=O)c(C)c32)c1 [Trametinib] (partner 0.02 µM)', 0.819);
